Data credit: ChEMBL document CHEMBL1139665

# Test system: A-375
# PROTOCOL: Antiproliferative activity against A375 cells at 10 uM by MTT assay after 72 hrs
# Assay type: functional
# PROTOCOL CONDITIONS: Homo sapiens, A-375, 72 h

- COMPOUND: "CCOP(=O)(OCC)C(Nc1nc2c(C)cccc2s1)c1ccccc1F (stereo not given)"
  inhibition at 10 µM, %: 9.2
- COMPOUND: "COc1ccc2nc(NC(c3ccccc3F)P(=O)(OC)OC)sc2c1 (stereo not given)"
  inhibition at 10 µM, %: 11.4
- COMPOUND: "CCCOP(=O)(OCCC)C(Nc1nc2c(C)cccc2s1)c1ccccc1F (stereo not given)"
  inhibition at 10 µM, %: 4.3
- COMPOUND: "COc1ccc2nc(NC(c3ccccc3F)P(=O)(OC(C)C)OC(C)C)sc2c1 (stereo not given)"
  inhibition at 10 µM, %: 2.8
- COMPOUND: "CCCCOP(=O)(OCCCC)C(Nc1nc2ccc(OC)cc2s1)c1ccccc1F (stereo not given)"
  inhibition at 10 µM, %: 17.4
- COMPOUND: "COP(=O)(OC)C(Nc1nc2c(C)cccc2s1)c1ccc(C(F)(F)F)cc1 (stereo not given)"
  inhibition at 10 µM, %: 20.8
- COMPOUND: "CCOP(=O)(OCC)C(Nc1nc2c(C)cccc2s1)c1ccc(C(F)(F)F)cc1 (stereo not given)"
  inhibition at 10 µM, %: 14.2
- COMPOUND: "CCCCOP(=O)(OCCCC)C(Nc1nc2c(C)cccc2s1)c1ccccc1F (stereo not given)"
  inhibition at 10 µM, %: 32.1
- COMPOUND: "CCCOP(=O)(OCCC)C(Nc1nc2ccc(OC)cc2s1)c1ccccc1F (stereo not given)"
  inhibition at 10 µM, %: 23.8
- COMPOUND: "CCOP(=O)(OCC)C(Nc1nc2ccc(OC)cc2s1)c1ccccc1F (stereo not given)"
  inhibition at 10 µM, %: 15.7

----------
# Test system: PC-3
# PROTOCOL: Antiproliferative activity against PC3 cells at 1 uM by MTT assay after 72 hrs
# Format: functional
# PROTOCOL CONDITIONS: Homo sapiens, PC-3, 72 h
Readings of inhibition at 1 µM for the listed compounds

- COMPOUND: "CCOP(=O)(OCC)C(Nc1nc2ccc(OC)cc2s1)c1ccc(F)cc1 (stereo not drawn)"
  SYSTEM NAME: "PC-3"
  inhibition at 1 µM / %: 32.1
- COMPOUND: "COc1ccc2nc(NC(c3ccccc3F)P(=O)(OC(C)C)OC(C)C)sc2c1 (stereo not drawn)"
  SYSTEM NAME: "PC-3"
  inhibition at 1 µM / %: -8.5
- COMPOUND: "CCOP(=O)(OCC)C(Nc1nc2ccc(OC)cc2s1)c1ccccc1F (stereo not drawn)"
  SYSTEM NAME: "PC-3"
  inhibition at 1 µM / %: 16.8

----------
# Tested on: A-431
# PROTOCOL: Antiproliferative activity against A431 cells at 5 uM by MTT assay after 72 hrs
# Assay type: functional
# PROTOCOL CONDITIONS: Homo sapiens, A-431, 72 h
Kindly return Met if reported inhibition at 5 µM is no lower than 20%; return Not met if it is lower.

- COMPOUND: "CCCOP(=O)(OCCC)C(Nc1nc2ccc(OC)cc2s1)c1ccccc1F (stereo not given)"
  CLASS: "Met"
- COMPOUND: "COc1ccc2nc(NC(c3ccccc3F)P(=O)(OC)OC)sc2c1 (stereo not given)"
  CLASS: "Not met"
- COMPOUND: "CCOP(=O)(OCC)C(Nc1nc2c(C)cccc2s1)c1ccc(C(F)(F)F)cc1 (stereo not given)"
  CLASS: "Not met"
- COMPOUND: "CCOP(=O)(OCC)C(Nc1nc2ccc(OC)cc2s1)c1ccc(F)cc1 (stereo not given)"
  CLASS: "Met"
- COMPOUND: "COP(=O)(OC)C(Nc1nc2c(C)cccc2s1)c1ccc(C(F)(F)F)cc1 (stereo not given)"
  CLASS: "Met"
- COMPOUND: "CCOP(=O)(OCC)C(Nc1nc2c(C)cccc2s1)c1ccccc1F (stereo not given)"
  CLASS: "Met"
- COMPOUND: "CCCOP(=O)(OCCC)C(Nc1nc2c(C)cccc2s1)c1ccccc1F (stereo not given)"
  CLASS: "Met"
- COMPOUND: "CCCCOP(=O)(OCCCC)C(Nc1nc2c(C)cccc2s1)c1ccccc1F (stereo not given)"
  CLASS: "Met"
- COMPOUND: "COc1ccc2nc(NC(c3ccccc3F)P(=O)(OC(C)C)OC(C)C)sc2c1 (stereo not given)"
  CLASS: "Not met"
- COMPOUND: "CCCCOP(=O)(OCCCC)C(Nc1nc2ccc(OC)cc2s1)c1ccccc1F (stereo not given)"
  CLASS: "Not met"

----------
# Tested on: A-431
# PROTOCOL: Antiproliferative activity against A431 cells at 5 uM by MTT assay after 72 hrs
# Format: functional
# PROTOCOL CONDITIONS: Homo sapiens, A-431, 72 h
Readings of inhibition at 5 µM for the listed molecules
REPORTED METRIC: inhibition at 5 µM (%)

- MOLECULE: "Cc1cccc2sc(NC(c3ccc(C(F)(F)F)cc3)P(=O)(OC(C)C)OC(C)C)nc12 (stereo not drawn)"
  MEASURED VALUE: 20.5
- MOLECULE: "CCOP(=O)(OCC)C(Nc1nc2ccc(OC)cc2s1)c1ccccc1F (stereo not drawn)"
  MEASURED VALUE: 12.3
- MOLECULE: "CCCCOP(=O)(OCCCC)C(Nc1nc2c(C)cccc2s1)c1ccc(C(F)(F)F)cc1 (stereo not drawn)"
  MEASURED VALUE: 40.8

----------
# Test system: A-375
# PROTOCOL: Antiproliferative activity against A375 cells at 10 uM by MTT assay after 72 hrs
# Assay type: functional
# PROTOCOL CONDITIONS: Homo sapiens, A-375, 72 h
Readings of inhibition at 10 µM for the listed compounds
REPORTED METRIC: inhibition at 10 µM (%)

- COMPOUND: "CCCCOP(=O)(OCCCC)C(Nc1nc2c(C)cccc2s1)c1ccc(C(F)(F)F)cc1 (stereo not drawn)"
  SYSTEM NAME: "A-375"
  REPORTED METRIC: "inhibition at 10 µM"
  MEASURED VALUE: 31.5
- COMPOUND: "Cc1cccc2sc(NC(c3ccc(C(F)(F)F)cc3)P(=O)(OC(C)C)OC(C)C)nc12 (stereo not drawn)"
  SYSTEM NAME: "A-375"
  REPORTED METRIC: "inhibition at 10 µM"
  MEASURED VALUE: 9.1
- COMPOUND: "CCOP(=O)(OCC)C(Nc1nc2ccc(OC)cc2s1)c1ccc(F)cc1 (stereo not drawn)"
  SYSTEM NAME: "A-375"
  REPORTED METRIC: "inhibition at 10 µM"
  MEASURED VALUE: 34.5

----------
# Test system: PC-3
# PROTOCOL: Antiproliferative activity against PC3 cells at 1 uM by MTT assay after 72 hrs
# Assay type: functional
# PROTOCOL CONDITIONS: Homo sapiens, PC-3, 72 h
Readings of inhibition at 1 µM for the listed compounds

- COMPOUND: "CCCOP(=O)(OCCC)C(Nc1nc2c(C)cccc2s1)c1ccccc1F (stereo not given)"
  inhibition at 1 µM [%]: 21.7
- COMPOUND: "CCCOP(=O)(OCCC)C(Nc1nc2ccc(OC)cc2s1)c1ccccc1F (stereo not given)"
  inhibition at 1 µM [%]: 5
- COMPOUND: "CCOP(=O)(OCC)C(Nc1nc2c(C)cccc2s1)c1ccccc1F (stereo not given)"
  inhibition at 1 µM [%]: 3.51
- COMPOUND: "CCCCOP(=O)(OCCCC)C(Nc1nc2c(C)cccc2s1)c1ccccc1F (stereo not given)"
  inhibition at 1 µM [%]: 52.1
- COMPOUND: "CCCCOP(=O)(OCCCC)C(Nc1nc2c(C)cccc2s1)c1ccc(C(F)(F)F)cc1 (stereo not given)"
  inhibition at 1 µM [%]: 5
- COMPOUND: "Cc1cccc2sc(NC(c3ccc(C(F)(F)F)cc3)P(=O)(OC(C)C)OC(C)C)nc12 (stereo not given)"
  inhibition at 1 µM [%]: 6.3
- COMPOUND: "COP(=O)(OC)C(Nc1nc2c(C)cccc2s1)c1ccc(C(F)(F)F)cc1 (stereo not given)"
  inhibition at 1 µM [%]: 4
- COMPOUND: "CCCCOP(=O)(OCCCC)C(Nc1nc2ccc(OC)cc2s1)c1ccccc1F (stereo not given)"
  inhibition at 1 µM [%]: -6.6
- COMPOUND: "COc1ccc2nc(NC(c3ccccc3F)P(=O)(OC)OC)sc2c1 (stereo not given)"
  inhibition at 1 µM [%]: 21.4
- COMPOUND: "CCOP(=O)(OCC)C(Nc1nc2c(C)cccc2s1)c1ccc(C(F)(F)F)cc1 (stereo not given)"
  inhibition at 1 µM [%]: 12.6
